Where do the numbers come from? From PubChem BioAssay AID1159580.

Please go through the items and note down their normalized growth.
Test: chemical genetic growth profiling, strain panel (AID 1159580);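 further: tested at 20 µM; growth read once vehicle control cultures reached saturation at 30 °C; 1 = growth at the plate median or of vehicle wells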
Settings: S. cerevisiae deletion strains, growth OD, locus YOR316C, strain cot1, stronger effect = lower value
The whole screen tested about 5,500 compounds, of which about 2,000 (36%) were called active. About 18% were inconclusive and are not listed. The list shows a part of the results.
Give bare numbers.

As a guide, the following entries are already answered.
O=C1c2ccccc2C(=O)c2ccccc21    0.996
CNC(=O)Oc1cccc2c1OC(C)(C)C2    0.996
O=C1NS(=O)(=O)c2ccccc21    0.983
CN1CCC[C@H]1c1cccnc1    0.989
COC1=CC23CCCN2CCc2cc4c(cc2C3C1O)OCO4 (centres undefined)    1.01

# per-item lookup of normalized growth; items listed below
1. COc1cc(Cc2cnc(N)nc2N)cc(OC)c1OC
2. C=C(C)C1Cc2c(ccc(C(=O)O)c2O)O1 (centres undefined)
3. CC(=O)Nc1c(I)cc(I)c(C(=O)O)c1I
4. COc1ccc(-c2c(OC)c3c(OC)c4c(cc3oc2=O)OC(C)(C)C=C4)cc1
5. CC(=O)OCC1=C(C(=O)O)N2C(=O)[C@@H](NC(=O)CSc3ccncc3)[C@H]2SC1
6. CNC(=O)Oc1ccccc1OC(C)C
7. C=C[C@H]1CN2CC[C@H]1C[C@H]2[C@H](O)c1ccnc2ccccc12
8. CCCc1ncc(C[n+]2ccccc2C)c(N)n1

[0.994, 0.939, 0.991, 0.975, 0.981, 0.992, 0.984, 0.997]

Batch of 8 compounds: report normalized growth for each.
1. CC(NC(C)(C)C)C(=O)c1cccc(Cl)c1 (centres undefined)
2. CNC(C)[C@@H]1CC[C@@H](N)[C@@H](OC2[C@@H](N)C[C@@H](N)[C@H](OC3OC[C@](C)(O)[C@H](NC)[C@H]3O)[C@H]2O)O1 (some centres undefined)
3. O=C(/C=C/c1ccccc1)c1c(O)cc(O)cc1O
4. CNC(=O)N(C)c1nnc(C(C)(C)C)s1
5. COc1ccc(-c2c(O)c3c(OC)c4c(cc3oc2=O)OC(C)(C)C=C4)cc1
6. CC(C)[C@@H]1CC[C@@H](C)C[C@H]1OC(=O)c1ccccc1
7. O=C1C=C(O)c2ccccc2C1=O
8. COc1ccc(NS(=O)(=O)c2ccc(N)cc2)nn1

1.03
1.02
0.996
1.02
0.916
1
0.98
0.985

###

Assay: chemical genetic growth profiling, strain panel (AID 1159580)
Details: S. cerevisiae deletion strains, growth OD, locus YNL307C, strain MCK1
The campaign covered roughly 5,500 compounds. About 2,000 (36%) were called active. About 18% were inconclusive and are not listed. No stated cut-off is given here; in the data, active means normalized growth mostly below about 0.91 (no sharp cut-off); inconclusive means no clear call, values can overlap the other calls; inactive means mostly above about 0.92. This is one part of the list.
In this exercise, the only acceptable responses are active, inactive

Worked set:
COc1ccc(/C=C/c2cc(O)cc(O[C@@H]3O[C@H](CO)[C@@H](O)[C@H](O)[C@H]3O)c2)cc1    inactive
O=C(/C=C/c1ccc(O)cc1)c1ccc(O)cc1O    inactive
O=C(/C=C/c1ccccc1)c1ccc(O[C@@H]2O[C@H](CO)[C@@H](O)[C@H](O)[C@H]2O)cc1O    active
CC(C)N1C(=O)c2ccccc2NS1(=O)=O    inactive
O=C1NS(=O)(=O)c2ccccc21    inactive

How did this test come out for COC1=CC23CCCN2CCc2cc4c(cc2C3C1O)OCO4 (stereo not given) ?
inactive

Status in this test for O=C(/C=C/c1ccccc1)c1c(O)cc(O)cc1O ?
inactive

###

Exercise: for every item that follows, state its recorded normalized growth.
Test: chemical genetic growth profiling, strain panel (AID 1159580)
Settings: S. cerevisiae deletion strains, growth OD, locus YML124C, strain tub3, stronger effect = lower value
Hit rate of the full screen: of about 5,500 compounds, about 2,000 (36%) were called active. Another 18% or so got no clear call; they are omitted. This is one part of the list.
Answers are plain numbers.

Would you please look over these solved cases?
COc1ccc(NS(=O)(=O)c2ccc(N)cc2)nn1    0.994
NC(Cc1ccc(Cl)cc1)C(=O)O (stereo not given)    0.998
CN1CCN(C2=Nc3cc(Cl)ccc3Nc3ccccc32)CC1    1.02
Cc1ccc(O)c(C(CCN(C(C)C)C(C)C)c2ccccc2)c1 (stereo not given)    0.991

# next compound below
Fill in normalized growth for record COP(=O)(NC(C)=O)SC (stereo not given)
0.997

###

Test: chemical genetic growth profiling, strain panel (AID 1159580);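 further: tested at 20 µM; growth read once vehicle control cultures reached saturation at 30 °C; 1 = growth at the plate median or of vehicle wells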
Details: S. cerevisiae deletion strains, growth OD, locus YCL069W, strain vba3
Hit rate of the full screen: of about 5,500 compounds, about 2,000 (36%) were called active. About 18% were inconclusive and are not listed. No stated cut-off is given here; in the data, active means normalized growth mostly below about 0.91 (no sharp cut-off); inconclusive means no clear call, values can overlap the other calls; inactive means mostly above about 0.92. The list shows a part of the results.
Valid outcomes are listed here; reply with one: active, inactive

Examples with answers:
CC(=O)NC1C(O)OC(COS(=O)(=O)O)C(OC2OC(C(=O)O)C(OC3OC(CO)C(OC4OC(C(=O)O)C(O)C(O)C4OS(=O)(=O)O)C(OS(=O)(=O)O)C3NS(=O)(=O)O)C(O)C2OS(=O)(=O)O)C1O (stereo unspecified)    inactive
NC(=NCCCCCCN=C(N)N=C(N)Nc1ccc(Cl)cc1)N=C(N)Nc1ccc(Cl)cc1    active

Hello, I am checking results. What call was entered for O=C1C=CC(=O)c2ccccc21 ?
active

I'd appreciate the recorded outcome for O=c1c(O)c(-c2ccccc2)oc2ccccc12 from this test.
active

Please let me know the test result on file for CC12CCC(OC(=O)c3ccccc3)CC1CCc1ccccc12 (stereo unspecified) .
inactive

Outcome logged for Cc1cc2nc3c(=O)[nH]c(=O)nc-3n(CC(O)C(O)C(O)CO)c2cc1C (stereo unspecified) in this assay:
inactive

Tell me the recorded outcome of this test for COc1cc(O)c2c(c1)C(=O)c1cc(C)cc(O)c1C2=O .
inactive

Answer briefly: the call reported for CC(=O)OCC1=C(C(=O)O)N2C(=O)[C@@H](NC(=O)CSc3ccncc3)[C@H]2SC1 in this assay.
inactive

###

Experiment: chemical genetic growth profiling, strain panel (AID 1159580);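 further: tested at 20 µM; growth read once vehicle control cultures reached saturation at 30 °C; 1 = growth at the plate median or of vehicle wells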
Conditions: S. cerevisiae deletion strains, growth OD, locus YKR091W, strain srl3, stronger effect = lower value
About 2,000 (36%) of roughly 5,500 compounds were called active. About 18% were inconclusive and are not listed. Some of the results follow.
test-readout: normalized growth
Give bare numbers.

CC(C)C1CCC(C(=O)N[C@@H](Cc2ccccc2)C(=O)O)CC1 (stereo not given in full)    0.978
OC[C@H]1O[C@@H](Oc2ccc(O)cc2)[C@H](O)[C@@H](O)[C@@H]1O    1

// input: 7 compounds below; output: normalized growth for each
1. Cn1c(=O)[nH]c2ncn(C)c2c1=O
2. CC(=O)CCCCn1c(=O)c2c(ncn2C)n(C)c1=O
3. O=C(/C=C/c1ccccc1)c1ccc(O)cc1O
4. O=C(/C=C/c1ccccc1)c1ccc(O[C@@H]2O[C@H](CO)[C@@H](O)[C@H](O)[C@H]2O)cc1O
5. COc1cc(Cc2cnc(N)nc2N)cc(OC)c1OC
6. NS(=O)(=O)c1cc2c(cc1Cl)NCNS2(=O)=O
7. CCCC(=O)Nc1ccc(OCC(O)CNC(C)C)c(C(C)=O)c1 (stereo not given)

0.98
1.01
0.0604
0.938
1.01
0.997
1

Report normalized growth for every entry below.
1. O=C(/C=C/c1ccc(O)cc1)c1ccccc1O
2. O=c1c(O)c(-c2ccccc2)oc2ccccc12
3. CC(C)[C@@H]1CC[C@@H](C)C[C@H]1OC(=O)c1ccccc1
4. O=C1C=CC(=O)c2c(O)cccc21
5. CC1CC(OC(=O)c2ccccc2O)CC(C)(C)C1 (stereo not given)
6. CC(C)[C@@H]1CC[C@@H](C)CC1=O
7. O=C1c2cccc(O)c2C(=O)c2c(O)cccc21

[0.71, 0.82, 0.995, 0.983, 0.981, 0.991, 0.97]

Please state normalized growth for every compound in the list that follows.
1. CC1(C)CC23C(=O)CCC(O)C2(C)CCC13 (stereo not given)
2. NC(=NCCCCCCN=C(N)N=C(N)Nc1ccc(Cl)cc1)N=C(N)Nc1ccc(Cl)cc1
3. Cc1cc(O)c2c(c1)C(=O)c1cccc(O)c1C2=O
4. CC12CCC(OC(=O)c3ccccc3)CC1CCc1ccccc12 (stereo not given)
5. Cn1c(=O)[nH]c2nc[nH]c2c1=O
6. Cn1c(=O)c2c(ncn2C)n(C)c1=O
7. O=C(/C=C/c1ccc(O)cc1)c1ccc(O)cc1O
8. O=c1c(O)c(-c2ccc(O)cc2)oc2ccccc12

0.989
0.0577
1
0.984
0.997
0.969
1.01
0.937

Indicate the recorded normalized growth value for this compound: Cn1c(=O)c2c(ncn2CCO)n(C)c1=O
1.02

###

Provide the reported normalized growth of each item.
Assay: chemical genetic growth profiling, strain panel (AID 1159580);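 further: tested at 20 µM; growth read once vehicle control cultures reached saturation at 30 °C; 1 = growth at the plate median or of vehicle wells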
Conditions: S. cerevisiae deletion strains, growth OD, locus YDR502C, strain sam2, stronger effect = lower value
Screen size: about 5,500 compounds; about 2,000 (36%) were called active. Roughly 18% stayed inconclusive and do not appear here. The list shows a part of the results.
Numbers only.

// known answers, use as guide
CC(C)N1C(=O)c2ccccc2NS1(=O)=O    1.01
ClC1C(Cl)C(Cl)C(Cl)C(Cl)C1Cl (stereo not given)    0.937
CC(=O)OC1CCC2(O)CC1(C)CCC1C2CC1(C)C (stereo not given)    1.02
O=c1c(O)c(-c2ccccc2)oc2cc(O)ccc12    0.751

Go through the items and report each one's normalized growth.
1. COc1cc2cccc(OC)c(=O)c2c(OC)c1OC
2. O=c1c(O)c(-c2ccccc2)oc2ccc3occc3c12

0.989
0.783
